test: ANC transmembrane transport across Caco-2 cell monolayer (Transwell, HPLC); format: in vitro ADME; settings: human, Caco-2; ANC 0.05 ×10^−3 mg/mL, 4 h
Measure Name: Papp B→A at 4 h, 0.05 ×10^−3 mg/mL (×10⁻⁶ cm/s)
Please state the figure in ×10⁻⁶ cm/s; there is no need to write the unit.

Recorded Papp B→A at 4 h, 0.05 ×10^−3 mg/mL for OC[C@H]1O[C@@H](Oc2cc3c(O)cc(O)cc3[o+]c2-c2ccc(O)c(O)c2)[C@H](O)[C@@H](O)[C@@H]1O [ANC, Cyanidin-3-glucoside] , please?
0.378

---

experiment: ANC transmembrane transport across Caco-2 cell monolayer (Transwell, HPLC); type: in vitro ADME; conditions: human, Caco-2; ANC 0.10 ×10^−3 mg/mL, 4 h
Measure Name: Papp B→A at 4 h, 0.1 ×10^−3 mg/mL
Report as: number unit

Entry OC[C@H]1O[C@@H](Oc2cc3c(O)cc(O)cc3[o+]c2-c2ccc(O)c(O)c2)[C@H](O)[C@@H](O)[C@@H]1O [ANC, Cyanidin-3-glucoside] has what Papp B→A at 4 h, 0.1 ×10^−3 mg/mL?
0.719 ×10⁻⁶ cm/s
